Test system: Human peripheral blood mononuclear cells (PBMC)
Experiment: Cytokine Induction in Human Cells
Format: cell-based
Details: 21-24 hours culture, lowest concentration inducing at least 2× negative control, IFN-gamma by multiplex bead assay
Readout: MEC to Induce Cytokine IFN-gamma (µM)
Give just the number in µM; leave the unit off.

Sample records with MEC to Induce Cytokine IFN-gamma:
Molecule	Readout Units	MEC to Induce Cytokine IFN-gamma
CC[C@@H](n1cnc2c(N)nc3ccccc3c21)C1(O)CCCCC1 [Example 6]	µM	1.2
Nc1nc2ccccc2c2c1ncn2CC1(O)CCCC1 [Comparative Example, reference compound]	µM	10

Reported MEC to Induce Cytokine IFN-gamma for Human peripheral blood mononuclear cells (PBMC), given C[C@@H](n1cnc2c(N)nc3ccccc3c21)C1(O)CCCC1 [Example 1] ?
3.3

What do you get for C[C@@H](n1cnc2c(N)nc3ccccc3c21)C1(O)CC=CC1 [Example 3] ?
3.3

What do you get for CC[C@@H](n1cnc2c(N)nc3ccccc3c21)C1(O)CCCC1 [Example 4] ?
1.1

* * *

System: Human dermal adult fibroblast cells
Test: Cell Viability Determination (resazurin)
Assay type: cell-based
Conditions: human dermal adult fibroblasts, compound 200 micromolar, 24 hours, normalized to untreated vehicle control, n=3
Readout: Mean Percent Cell Viability (%)
Give just the number in %; leave the unit off.

Smiles Record	Value Reported
CC[C@H](n1cnc2c(N)nc3ccccc3c21)C1(O)CCCC1	78
C[C@H](n1cnc2c(N)nc3ccccc3c21)C1(O)CCCC1	81

What value of Mean Percent Cell Viability has been recorded for this entry: "C[C@@H](n1cnc2c(N)nc3ccccc3c21)C1(O)CCCC1"
80
